Documented log10 IC50 across a set of compounds
Biological target: NMDA receptor (NR1 subunit and NR2B subunit) (Mus musculus, UniProt P35438+Q01097)
Construct: expressed in transfected cells; host or cells: HEK293 cells, transient transfection with pcDNA3.1 plasmids
Sequence (Q01097 27-1482, other chains not shown): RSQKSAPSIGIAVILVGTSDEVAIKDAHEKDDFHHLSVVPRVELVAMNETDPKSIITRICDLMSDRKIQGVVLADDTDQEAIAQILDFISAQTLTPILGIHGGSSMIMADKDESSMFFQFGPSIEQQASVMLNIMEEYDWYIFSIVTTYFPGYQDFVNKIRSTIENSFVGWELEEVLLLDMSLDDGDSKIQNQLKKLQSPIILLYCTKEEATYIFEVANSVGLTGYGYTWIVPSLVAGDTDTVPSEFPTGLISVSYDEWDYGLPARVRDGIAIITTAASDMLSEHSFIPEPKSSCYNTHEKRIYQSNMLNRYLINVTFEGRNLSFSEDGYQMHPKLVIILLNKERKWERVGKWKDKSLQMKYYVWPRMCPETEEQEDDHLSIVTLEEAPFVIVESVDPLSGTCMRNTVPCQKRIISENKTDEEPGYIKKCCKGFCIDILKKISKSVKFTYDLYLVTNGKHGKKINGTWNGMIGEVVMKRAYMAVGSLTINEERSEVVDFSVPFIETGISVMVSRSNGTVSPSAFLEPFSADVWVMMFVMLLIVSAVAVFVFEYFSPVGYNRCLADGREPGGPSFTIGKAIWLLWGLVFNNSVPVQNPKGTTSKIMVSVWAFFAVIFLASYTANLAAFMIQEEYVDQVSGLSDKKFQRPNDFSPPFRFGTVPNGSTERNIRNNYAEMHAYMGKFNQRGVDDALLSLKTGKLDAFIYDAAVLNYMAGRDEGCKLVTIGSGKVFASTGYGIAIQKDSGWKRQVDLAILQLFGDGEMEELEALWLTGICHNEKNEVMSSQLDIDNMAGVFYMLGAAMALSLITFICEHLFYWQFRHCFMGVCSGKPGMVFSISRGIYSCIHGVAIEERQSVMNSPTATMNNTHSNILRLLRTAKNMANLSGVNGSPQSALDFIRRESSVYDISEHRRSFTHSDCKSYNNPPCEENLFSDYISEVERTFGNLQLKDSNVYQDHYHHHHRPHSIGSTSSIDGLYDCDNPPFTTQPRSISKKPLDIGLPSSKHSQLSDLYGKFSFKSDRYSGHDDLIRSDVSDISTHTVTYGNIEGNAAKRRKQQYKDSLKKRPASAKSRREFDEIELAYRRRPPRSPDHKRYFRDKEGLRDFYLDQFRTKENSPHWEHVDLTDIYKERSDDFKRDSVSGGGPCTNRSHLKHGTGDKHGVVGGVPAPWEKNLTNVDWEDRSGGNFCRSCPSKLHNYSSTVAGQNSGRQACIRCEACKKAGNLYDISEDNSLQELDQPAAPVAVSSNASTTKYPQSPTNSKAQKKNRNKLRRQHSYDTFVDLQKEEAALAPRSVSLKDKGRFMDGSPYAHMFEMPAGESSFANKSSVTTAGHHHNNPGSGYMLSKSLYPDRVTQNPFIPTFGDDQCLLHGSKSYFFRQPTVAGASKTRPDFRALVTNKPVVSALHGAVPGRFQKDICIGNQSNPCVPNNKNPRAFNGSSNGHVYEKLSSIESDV
Test: Measurement of expression of NMDA receptor and Ca ion influx amount (glutamic acid/glycine-induced, HEK293 cell co-expressing NR1 and NR2B subunits, Fluo-3/AM)
Assay type: cell-based
Settings: Ca ion influx induced with 20 μM glutamic acid/2 μM glycine, HEK293 cell with mouse NR1/NR2B; read-out: Ca2+ IC50
Metric: log10 IC50 (log10 of the value in nM)

O=C(NCC1CCN(c2ccc(Cl)c(Cl)c2)CC1)c1ccc2[nH]c(=O)oc2c1 :: 1.64
CC(C)c1ccc(N2CCC(O)(CC(=O)Nc3ccc4[nH]c(=O)oc4c3)CC2)cc1 :: 1.18
O=C(Nc1ccc2[nH]c(=O)oc2c1)C(=O)N1CCCN(c2ccc(Cl)cc2)CC1 :: 1.00
O=C(CC1=CCN(c2ccc(C(F)(F)F)cn2)CC1)Nc1ccc2[nH]c(=O)oc2c1 :: 1.90
O=C(CC1(O)CCN(c2ccc(C(F)(F)F)c(F)c2)CC1)Nc1ccc2[nH]c(=O)oc2c1 :: 1.69
O=C(NCCC1CCN(c2ccc(C(F)(F)F)cc2)CC1)c1ccc(=O)[nH]c1 :: 1.15
O=C(C=C1CCN(c2cc(C(F)(F)F)ccn2)CC1)Nc1ccc2[nH]c(=O)oc2c1 :: 1.96
O=C(Nc1ccc2[nH]c(=O)sc2c1)C(=O)N1CCN(c2ccc(F)cc2)CC1 :: 1.94
O=C(CC1=CCN(c2ccc(C(F)(F)F)cc2)CC1)Nc1ccc2[nH]c(=O)oc2c1 :: 1.83
O=C(CC1(O)CCN(c2ccc(F)c(C(F)(F)F)c2)CC1)Nc1ccc2[nH]c(=O)oc2c1 :: 1.79
O=C(Nc1ccc2[nH]c(=O)oc2c1)C(=O)N1CCN(c2ccc(Cl)c(Cl)c2)CC1 :: 0.00
O=C(Nc1ccc2[nH]c(=O)oc2c1)C(=O)N1CCN(c2ccc(Cl)c(F)c2)CC1 :: 0.00
O=C(NCC1CCN(c2ccc(Cl)c(F)c2)CC1)c1ccc2[nH]c(=O)oc2c1 :: 1.64
O=C(C=C1CCN(c2ccc(Cl)c(Cl)c2)CC1)Nc1ccc2[nH]c(=O)oc2c1 :: 1.04
O=C(Nc1cnc2[nH]c(=O)oc2c1)C(=O)N1CCN(c2ccc(C(F)(F)F)cc2)CC1 :: 1.59
O=C(CC1(O)CCN(c2ccc(Cl)c(Cl)c2)CC1)Nc1ccc2[nH]c(=O)oc2c1 :: 1.15
O=C(CC1(O)CCN(c2ccc(F)c(C(F)(F)F)c2)CC1)Nc1ccc2[nH]c(=O)sc2c1 :: 1.72
O=C(C=C1CCN(c2ccc(C(F)(F)F)cn2)CC1)Nc1ccc2[nH]c(=O)sc2c1 :: 1.40
O=C(Nc1cnc2[nH]c(=O)oc2c1)C(=O)N1CCCN(c2ccc(Cl)c(F)c2)CC1 :: 1.72
O=C(Nc1cnc2[nH]c(=O)[nH]c2c1)C(=O)N1CCN(c2ccc(C(F)(F)F)cc2)CC1 :: 0.00

----------
Target: NMDA receptor (NR1 subunit and NR2B subunit) (Mus musculus, UniProt P35438+Q01097)
Construct: expressed in transfected cells; host or cells: HEK293 cells, transient transfection with pcDNA3.1 plasmids
Assay: Measurement of expression of NMDA receptor and Ca ion influx amount (glutamic acid/glycine-induced, HEK293 cell co-expressing NR1 and NR2B subunits, Fluo-3/AM)
Assay type: cell-based
Conditions: Ca ion influx induced with 20 μM glutamic acid/2 μM glycine, HEK293 cell with mouse NR1/NR2B; read-out: Ca2+ IC50
pIC50: −log10 of the molar value.
# pIC50 >= 8 gives criterion met, anything below gives criterion not met

O=C(NCCC1CCN(c2ccc(Br)cc2)CC1)c1ccc(=O)[nH]c1 :: criterion not met
O=C(CC1(O)CCN(c2ccc(C(F)(F)F)cn2)CC1)Nc1ccc2[nH]c(=O)oc2c1 :: criterion not met
O=C(Nc1cnc2[nH]c(=O)oc2c1)C(=O)N1CCN(c2ccc(Cl)c(F)c2)CC1 :: criterion not met
O=C(CC1(O)CCN(c2ccc(C(F)(F)F)cc2)CC1)Nc1ccc2[nH]c(=O)oc2c1 :: criterion met
O=C(Nc1ccc2[nH]c(=O)oc2c1)C(O)C1CCN(c2ccc(C(F)(F)F)cc2)CC1 (centres unmarked) :: criterion not met
O=C(NCC1CCN(c2ccc(C(F)(F)F)cc2)CC1)c1ccc2[nH]c(=O)oc2c1 :: criterion not met
